These entries and their values trace back to the supplement of paper PMC9732359.

Assay: protein stability index of a GFP-peptide fusion (yeast GPS) (PSI 1-4); higher = more stable; sorted into four equal gates, so the index is relative within each strain
Conditions: san1∆
yes (1) means recorded protein stability index is 3 or above; no (0) means it is below 3.

# residue.string, cat
measured = [
    ("KRGEVVKIIRKSETSGR [RPB5]", "yes (1)"),
    ("KYLIKYNVFRQHTSFQE [CSI1]", "no (0)"),
    ("AENDVIEATDLGNIASS [BRR2]", "yes (1)"),
    ("EKTFLHLPCTIEAEEAE [RPN8]", "no (0)"),
    ("ASSWAKKIAQRERRAAL [RPL14A]", "no (0)"),
    ("LKDIVGQTSRTVTPAPN [ITC1]", "no (0)"),
    ("NQLSQTNKLLFKRVSQT [NUT1]", "no (0)"),
    ("YILEAEAAAKEKDELDN [QCR7]", "yes (1)"),
]
